// molecules with reported IC50 on Autotaxin (Homo sapiens, UniProt Q13822), multi-publication
I'd appreciate it if you marked entries Fulfilled when IC50 is lower than 8 nM and Not fulfilled when it is not.

Examples from the recorded data:
MOLECULE	CLASS_ASSIGNMENT
CCCCCC1CN(c2cccc(OCC(=O)O)c2)C(=O)c2cc(-c3ccc(Cl)cc3)nn21 (stereo not shown)	Not fulfilled
O=C(OCc1cc(F)cc(OC(F)(F)F)c1)N1CCCC2(CCN(C(=O)c3ccc4[nH]nnc4c3)C2)C1 (stereo not shown)	Not fulfilled
Cc1noc(NC(=O)c2ccc(NC(CO)Cc3ccc(Cl)cc3)nn2)c1C (stereo not shown)	Not fulfilled
Cc1cc(OCc2n[nH]c(=O)n2C)c(C(C)C)cc1C#N	Fulfilled
Cc1cccc(C(=O)N[C@H](C(=O)N2CCC3(CC2)C(=O)N(C)CN3c2ccccc2)C2CCOCC2)c1	Not fulfilled
CC(C)(C)c1cc(Br)ccc1OCC(=O)N1C[C@@H]2CN(C(=O)[C@@H]3CCc4[nH]nnc4C3)C[C@H]2C1	Fulfilled
COCC(=O)N(C)Cc1ccc(F)c(-c2cc(Cl)c(C)cc2OCc2n[nH]c(=O)n2C)c1	Fulfilled
CC(C)(C)C(=O)Nc1cc(C(F)(F)F)cnc1COC(=O)N1Cc2cc(C(=O)N3CCC(S(N)(=O)=O)CC3)sc2C1	Fulfilled
O=C(OCc1ccc(OC(F)(F)F)c(F)c1)N1CCc2nc(C(=O)N3CCc4[nH]nnc4C3)nn2CC1	Fulfilled
COC(=O)c1cc(COc2cc(C)c(Cl)cc2C(C)(C)C)n[nH]1	Not fulfilled

Is IC50 strictly under 8 nM for the entry `CC(C)(C)c1cc(S(C)(=O)=O)ccc1OCc1n[nH]c2ncccc12` ? Not fulfilled

Is IC50 strictly under 8 nM for the entry `Cc1ccc(C(C)C)c(OCC(=O)N2CC[C@@H]3CN(C(=O)c4ccc5[nH]nnc5c4)C[C@@H]3CC2)c1` ? Not fulfilled

Is IC50 strictly under 8 nM for the entry `Cc1cc2c(cc1C)CC(Nc1ncc(C(=O)N3CCC34COC4)cn1)C2` ? Not fulfilled

Is IC50 strictly under 8 nM for the entry `CC(C)(C)c1cc(C#N)ccc1OCC(=O)N1C[C@@H]2CN(C(=O)[C@@H]3CCc4[nH]nnc4C3)C[C@H]2C1` ? Fulfilled

Is IC50 strictly under 8 nM for the entry `O=C(/C=C/c1ccc(OC(F)(F)F)cc1)N1C[C@@H]2CN(C(=O)c3ccc4[nH]nnc4c3)C[C@H]2C1` ? Not fulfilled
